Item-by-item account of IC50
biological target: 11-beta-hydroxysteroid dehydrogenase 1 (Mus musculus, UniProt P50172); assay: Inhibition of mouse microsomal 11beta-HSD1 overexpressed in HEK293 cells using [3H]-cortisone as substrate assessed as formation of [3H]-cortisol using [3H]cortisone by scintillation proximity assay in presence of NADPH; details: read-out: IC50
Sequence (P50172 whole entry): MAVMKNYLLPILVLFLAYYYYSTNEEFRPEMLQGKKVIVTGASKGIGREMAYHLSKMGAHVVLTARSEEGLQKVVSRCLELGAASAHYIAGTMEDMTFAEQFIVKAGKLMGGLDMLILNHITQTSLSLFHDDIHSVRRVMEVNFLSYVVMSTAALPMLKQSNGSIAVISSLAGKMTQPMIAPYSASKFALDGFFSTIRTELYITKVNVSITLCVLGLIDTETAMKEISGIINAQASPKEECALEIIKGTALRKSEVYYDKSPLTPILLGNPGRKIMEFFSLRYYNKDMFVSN

molecule	IC50 [µM]
C[C@@H](C[C@@H](O)[C@@H]1OC1(C)C)[C@H]1CC[C@@]2(C)C3=CC[C@H]4C(C)(C)C(=O)CC[C@]4(C)[C@H]3CC[C@]12C	0.69
C[C@@H](C[C@@H](O)[C@H](O)C(C)(C)O)[C@@H]1CC[C@]2(C)C3=CC[C@H]4C(C)(C)C(=O)CC[C@]4(C)[C@H]3CC[C@@]12C	0.88
C[C@@H](C[C@@H](O)[C@@H]1OC1(C)C)[C@H]1CC[C@@]2(C)C3=CC[C@H]4C(C)(C)[C@@H](O)CC[C@]4(C)[C@H]3CC[C@]12C	3.8
C[C@@H]([C@@H]1O[C@@H]1C(O)C(C)(C)O)[C@@H]1CC[C@]2(C)C3=CC[C@H]4C(C)(C)[C@H](O)CC[C@]4(C)[C@H]3CC[C@@]12C (some centres undefined)	1.2

Data origin, for the record: ChEMBL document CHEMBL4477167
